Measured values drawn from ChEMBL document CHEMBL1806407 for this set.

Assay: Selectivity index, ratio of Ki for recombinant Plasmodium falciparum dUTPase K96A mutant expressed in Escherichia coli BL21(DE3) cells to Ki for human dUTPase
measured_property: Ratio Ki

Answered examples (3):
>>> df
                                        mol  value_measured
0  O=c1ccn([C@H]2C[C@H](O)[C@@H](CNC(c3ccccc3)(c3ccccc3)c3ccccc3)O2)c(=O)[nH]1             418
1  O=c1ccn(CCCCCCNC(c2ccccc2)(c2ccccc2)c2ccccc2)c(=O)[nH]1          > 6670
2  CC(C)(C)[Si](OC[C@@H]1C=C[C@H](n2ccc(=O)[nH]c2=O)O1)(c1ccccc1)c1ccccc1          > 2560

Moving on to the next molecule.
Ratio Ki reported for this molecule `O=c1ccn(CCCNC(c2ccccc2)(c2ccccc2)c2ccccc2)c(=O)[nH]1` : 35
